- subject-of-test: Rhesus monkey Claudine18.2 (Rhesus monkey) (UniProt F6YQY3)
- test-details: FACS on CHOK1-rh18.2 cells
quantity-kind: FACS MFI
Would you mind answering with just the numeric figure?

FACS MFI in this record for Ab30 (antibody, V domains shown) VH: QVQLKESGPGLVAPSQSLSITCTVSGFSLTKFGVNWVRQPPGKGLEWLGAIWGDGSTNYHSALISRLSINKDNSKSQVFLKLSSLQNVDTATYYCAKSGYGNAMDYWGHGTSVTVSS VL: DIVMTQSPSSLTVTTGEKVTLNCKSSQSLLNSGNLKNYLTWYQQRPGQPPKLLIYWASTRESGVPYRFTGSGSGTDFTLTISNVQAEDLAIYYCQNDYFFPFTFGSGTKLEIK : 10500

FACS MFI in this record for Ab18 (antibody, V domains shown) VH: QVQLKESGPGLVAPSQSLSITCTVSGFSLTTYGINWVRQPPGKGLEWLGVIWGDGSTNYHSALISRLSISKDNSKSQVFLKLNSLQTDDTATYYCVKSSYYGNAMDYWGQGTSVTVSS VL: DIVMTQSPSSLTVTAGETVTMSCKSSQSLLNSGNQKNYLTWYQQKPGQPPKLLIYWASTRESGVPDRFTGSGSGTDFTLTISSVQAEDLAVYYCQNVYSYPFTFGSGTKLEI : 7890

FACS MFI in this record for Ab31 (antibody, V domains shown) VH: QIQLAQSGPELKKPGETVKISCKASGYSFTNYGMNWVKQAPGKGLKWMGWINTYSGETKYADDFKGRFDFSLETSARTAYLQIKNLKIEDTATYFCARRDAMDYWGQGTSVTVSS VL: DIVMTQAAPSVPVTPGESVSISCRSSKSLLNSNGNTYLYWFLQRPGQSPQLLIYRMSNLASGVPDRFSGSGSGTAFTLRISRVEAEDVGVYYCMQHLEFPFTFGSGTKLEIK : 8010
